- tested system: T1, SH2 domain of Abl1 (recombinant, on protein microarray) (human, UniProt P00519 127-217)
- T1 construct: Abl1, human, SH2 domain
- T1 sequence (looked up): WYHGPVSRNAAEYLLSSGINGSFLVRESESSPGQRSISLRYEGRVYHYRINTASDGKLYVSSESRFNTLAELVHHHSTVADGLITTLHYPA
- assay procedure: peptide or protein array; recombinant human SH2 and PTB domains spotted on protein microarrays; probed in duplicate with eight concentrations of fluorescently labeled peptide, 10 nM to 5 µM; fluorescence fit to a saturation binding equation
- measurement conditions: both partners purified
pKd: −log10 of the molar value. Where no end group is shown, it is not given here. [ ]: non-standard residue; d: D form. pY = N[C@@H](Cc1ccc(OP(=O)(O)O)cc1)C(=O)O
quantity measured: pKd

* KYVDSEGHL[pY]TVPIREQG (peptide, UniProt Q03135 5-22, looked up, also: fluorescent label (position not given here), caveolin-1 (Cav1), human, residues 5-22; also called Tyr14-Cav1 phosphopeptide (18 amino acids); source: synthetic peptide, purified to >95% by preparative reverse phase HPLC) [fluorescently labeled Tyr14-Cav1 phosphopeptide (residues 5-22 of Cav1, phosphorylated on Tyr14)] | > 5.70
